# System: Rattus norvegicus
# EXPERIMENT_NOTES: Ratio of naproxen ulcer index to compound ulcer index in Wistar albino rat at 45 mg/kg, po
# Assay type: ADME, organism-based
# Design: dose 45 mg/kg, route oral
# TEST_CONTEXT: in vivo
// reported Ratio per item

ITEM_SMILES: COc1ccc(C(=O)n2nc(C)c3nnc4cc(Cl)c(F)cc4c32)cc1
Ratio: > 6

Request: Ratio, test system Rattus norvegicus, entry Cc1ccc(C(=O)n2nc(C)c3nnc4cc(Cl)c(F)cc4c32)cc1
> 6

---

# System: Pseudomonas aeruginosa
# EXPERIMENT_NOTES: Antibacterial activity against Pseudomonas aeruginosa NCTC 10662 after 18 to 24 hrs by cup plate method
# Type: functional
RESULT_TYPE: MIC
Enter the number, and then the unit.

Below, each entry is followed by its recorded MIC result.
ITEM_SMILES: Cc1nn(C(=O)Cc2ccccc2)c2c1nnc1cc(Cl)c(F)cc12
ENDPOINT_RESULT: 25 µg/mL
--
ITEM_SMILES: Cc1nn(C(=O)COc2ccccc2)c2c1nnc1cc(Cl)c(F)cc12
ENDPOINT_RESULT: 50 µg/mL
--
ITEM_SMILES: Cc1nn(C(=O)c2ccc(Cl)cc2Cl)c2c1nnc1cc(Cl)c(F)cc12
ENDPOINT_RESULT: 12.5 µg/mL
--
ITEM_SMILES: Cc1nn(C(=O)c2ccc([N+](=O)[O-])cc2)c2c1nnc1cc(Cl)c(F)cc12
ENDPOINT_RESULT: 12.5 µg/mL
--
ITEM_SMILES: O=C(O)c1cn(C2CC2)c2cc(N3CCNCC3)c(F)cc2c1=O
ENDPOINT_RESULT: 3.12 µg/mL

Look up MIC for this compound: Cc1nn(C(=O)c2ccccc2)c2c1nnc1cc(Cl)c(F)cc12
50 µg/mL

Returns the measured MIC for the input compound. Input: Cc1nn(C(=O)c2ccc(F)cc2)c2c1nnc1cc(Cl)c(F)cc12
50 µg/mL

---

# Test system: Pseudomonas aeruginosa
# EXPERIMENT_NOTES: Antibacterial activity against Pseudomonas aeruginosa NCTC 10662 at 100 ug/ml after 18 to 24 hrs by cup plate method
# Assay type: functional
# TEST_CONTEXT: read-out: DIZ
RESULT_TYPE: zone of inhibition at 100 µg/mL (mm)
Report only the number, with the unit mm understood.

Answered cases to consult:
ITEM_SMILES: Cc1nn(C(=O)COc2ccc(Cl)cc2Cl)c2c1nnc1cc(Cl)c(F)cc12
ENDPOINT_UNIT: mm
zone of inhibition at 100 µg/mL: 8.32
//
ITEM_SMILES: Cc1nn(C(=O)c2ccc(Cl)cc2)c2c1nnc1cc(Cl)c(F)cc12
ENDPOINT_UNIT: mm
zone of inhibition at 100 µg/mL: 9.1
//
ITEM_SMILES: COc1ccc(C(=O)n2nc(C)c3nnc4cc(Cl)c(F)cc4c32)cc1
ENDPOINT_UNIT: mm
zone of inhibition at 100 µg/mL: 7.16
//
ITEM_SMILES: COc1ccc(C(=O)n2nc(C)c3nnc4cc(Cl)c(F)cc4c32)cc1OC
ENDPOINT_UNIT: mm
zone of inhibition at 100 µg/mL: 9.29

Suppose we examine the compound Cc1nn(C(=O)c2ccc(F)cc2)c2c1nnc1cc(Cl)c(F)cc12 ; what zone of inhibition at 100 µg/mL value has been reported?
10.9

Taken from ChEMBL document CHEMBL2203127.
